Test system: Trypanosoma cruzi
Assay: Antiprotozoal activity against Trypanosoma cruzi […] measured after 72 hrs
Format: functional, organism-based
VALUE_TYPE: IC50

Memo: c1ccc(CN2CCN(Cc3ccccn3)CCN(Cc3ccccn3)CC2)nc1 , reported IC50: 7 µM

###

Experiment: Inhibition of TryR (unknown origin) assessed as inhibition constant
Design: species or system Bacteria
pKi: −log10 of the molar value.
Quick rule for you: pKi at 5 or higher means Met, lower means Not met.

Examples with answers:
cpd_smiles=O=C1CC[C@]23/C=C/C(=O)NCCCCNCCCNC(=O)/C=C/c4ccc(c2c4)O[C@@H]3C1 qualitative_label="Not met"
cpd_smiles=CN1CCN(CCCNC(=O)/C=C/c2ccc3occ(/C=C/C(=O)NCCCN4CCN(C)CC4)c3c2)CC1 qualitative_label=Met
cpd_smiles=CC(=O)c1ccc(Sc2ccccc2NCCCN(CCCN)CCCCN(CCCN)CCCNc2cc(Cl)ccc2Sc2ccc(C(C)=O)cc2)cc1 qualitative_label=Met
cpd_smiles=O=C(NCCCCNCCCNC(=O)c1cnc2cc(C(F)(F)F)ccc2c1O)c1cnc2cc(C(F)(F)F)ccc2c1O qualitative_label=Met

Kindly determine if pKi recorded for O=C(NCCCNCCCCNCCCNC(=O)c1cnc2cc(C(F)(F)F)ccc2c1O)c1cnc2cc(C(F)(F)F)ccc2c1O is above or exactly 5.
Met
